Form field: fold change in cis-α-irone produced (one value per entry).
Assay: Cell lysate reaction of pMT enzymes with psi-ionone, irones quantified by HS-SPME-GCMS
Type: biochemical
Settings: pMT1_E153 mutants; AUC vs non-mutated (=1)
Text: Using the structure of pMT1 in complex with the cofactor S-adenosyl-L-homocysteine (SAH) and the substrate teleocidin A1 (PDB id: 5GM2) as a template, pMT1 bound to each of the four isomers of α-irone was modelled with the aim of identifying amino acid residues that could be critical to increase cis-α-irone or decrease trans-α-irone production (FIGS. 2d and 2e). […] HS-SPME-GCMS analysis was used to quantify the amount of irones produced by each pooled-colony reaction. […]

Molecule: pMT1_E153L: pMT1 with E153L (protein) MPQEARTPQQQVTADEVGDWYDKFGEVYHLTLGESVHCGLWFPPDAPVPQDMELVTMSSQAQDRYTDYLIETLDPKAGQHLLDIGCGTGRTALKAARQRGIAVTGVAVSKEQIAAANRLAAGHGLTERLTFEVADAMRLPYEDESFDCAWAILSLCHMDRAKALGEAWRVLKPGGDLLVLESVVTEELTEPETALFETLYAANVPPRLGEFFDIVSGAGFHTLSLKDLSANLAMTMNVFALGVYSRRAEFTERFGAEFVDGLLAGLGSAQETLIRKTRFFMATLRKPAV
fold change in cis-α-irone produced: 0.0
--
Molecule: pMT1_E153M: pMT1 with E153M (protein) MPQEARTPQQQVTADEVGDWYDKFGEVYHLTLGESVHCGLWFPPDAPVPQDMELVTMSSQAQDRYTDYLIETLDPKAGQHLLDIGCGTGRTALKAARQRGIAVTGVAVSKEQIAAANRLAAGHGLTERLTFEVADAMRLPYEDESFDCAWAIMSLCHMDRAKALGEAWRVLKPGGDLLVLESVVTEELTEPETALFETLYAANVPPRLGEFFDIVSGAGFHTLSLKDLSANLAMTMNVFALGVYSRRAEFTERFGAEFVDGLLAGLGSAQETLIRKTRFFMATLRKPAV
fold change in cis-α-irone produced: 0.0
